# systemUnderTest: purified E. coli 70S ribosome (E. coli (endogenous in BW25113), UniProt P60723 1-201; P61175 1-110; P0ADZ0 1-100; P0A7M6 1-63; P0A7J3 1-165)
# assayText: FP
[ ]: non-standard residue; d: D form.

| binder | Kd [nM] |
| --- | --- |
| {5(6)‑carboxyfluorescein}-VDKPPYLPRPRPPR[dR]IYN[dR]-NH2 [cf-Onc112 (5(6)-carboxyfluorescein-labeled Onc112, VDKPPYLPRPRPPRrIYNr-NH2)] | 60 |

// provenance: paper PMC11087509
